system: MDA-MB-231; assay: Antiproliferative activity against human MDA-MB-231 cells assessed as inhibition of cell growth measured after 72 hrs by MTT assay; format: functional, cell-based; settings: MDA-MB-231, 72 h
Measured Metric: IC50 (µM)

[[record]]
compound = "CC(C)(C)c1cc2c(O)c(c1)Cc1cc(C(C)(C)C)cc(c1OC/C=C/C(=O)NCCCO)Cc1cc(C(C)(C)C)cc(c1O)Cc1cc(C(C)(C)C)cc(c1OC/C=C/C(=O)NCCCO)C2"
measured_metric = "IC50"
reported = 5.2

[[record]]
compound = "CC(Oc1c2cc(C(C)(C)C)cc1Cc1cc(C(C)(C)C)cc(c1O)Cc1cc(C(C)(C)C)cc(c1OC(C)C(=O)NCCCCCO)Cc1cc(C(C)(C)C)cc(c1O)C2)C(=O)NCCCCCO (stereo unspecified)"
measured_metric = "IC50"
reported = 3.26

[[record]]
compound = "CC(C)(C)c1cc2c(O)c(c1)Cc1cc(C(C)(C)C)cc(c1OCCCCCC(=O)NCCO)Cc1cc(C(C)(C)C)cc(c1O)Cc1cc(C(C)(C)C)cc(c1OCCCCCC(=O)NCCO)C2"
measured_metric = "IC50"
reported = 13


(A) CC(C)(C)c1cc2c(O)c(c1)Cc1cc(C(C)(C)C)cc(c1OCCCC(=O)NCCCO)Cc1cc(C(C)(C)C)cc(c1O)Cc1cc(C(C)(C)C)cc(c1OCCCC(=O)NCCCO)C2
(B) CC(Oc1c2cc(C(C)(C)C)cc1Cc1cc(C(C)(C)C)cc(c1O)Cc1cc(C(C)(C)C)cc(c1OC(C)C(=O)N(CCO)CCO)Cc1cc(C(C)(C)C)cc(c1O)C2)C(=O)N(CCO)CCO (stereo unspecified)
Ask | Parameter metric = IC50. Return the lower-valued option from A and B . // caller expects the label of the chosen entry
Reply | B
(B: 1.63 µM, A: 17.9 µM)

====

system: MDA-MB-231; experiment: Antiproliferative activity against human MDA-MB-231 cells assessed as inhibition of cell growth measured after 72 hrs by MTT assay; assay type: functional, cell-based; conditions: MDA-MB-231, 72 h
Measured Metric: IC50 (µM)

(A) CC(C)(C)c1cc2c(O)c(c1)Cc1cc(C(C)(C)C)cc(c1OCCCCCC(=O)NCCCCCO)Cc1cc(C(C)(C)C)cc(c1O)Cc1cc(C(C)(C)C)cc(c1OCCCCCC(=O)NCCCCCO)C2
(B) CC(Oc1c2cc(C(C)(C)C)cc1Cc1cc(C(C)(C)C)cc(c1O)Cc1cc(C(C)(C)C)cc(c1OC(C)C(=O)NCCO)Cc1cc(C(C)(C)C)cc(c1O)C2)C(=O)NCCO (stereo not drawn)
Ask | Parameter metric = IC50. Return the lower-valued option from A and B . // caller expects the label of the chosen entry
Reply | B

====

assay: Cytotoxicity against HUVEC cells assessed as inhibition of cell growth at 10 uM measured after 72 hrs by MTT assay; type: cell-based; conditions: human
Measured Metric: inhibition at 72 h, 10 µM (%)
// return numeric value only (unit: %, not printed)

[[record]]
compound = "CC(C)(C)c1cc2c(O)c(c1)Cc1cc(C(C)(C)C)cc(c1OCC(=O)NCCO)Cc1cc(C(C)(C)C)cc(c1O)Cc1cc(C(C)(C)C)cc(c1OCC(=O)NCCO)C2"
measured_metric = "inhibition at 72 h, 10 µM"
reported = 19.6


Ask | inhibition at 72 h, 10 µM lookup needed for CCC(Oc1c2cc(C(C)(C)C)cc1Cc1cc(C(C)(C)C)cc(c1O)Cc1cc(C(C)(C)C)cc(c1OC(CC)C(=O)N(CCO)CCO)Cc1cc(C(C)(C)C)cc(c1O)C2)C(=O)N(CCO)CCO (stereo not given) , thanks.
Reply | 9.6

Ask | inhibition at 72 h, 10 µM lookup needed for CC(C)(C)c1cc2c(O)c(c1)Cc1cc(C(C)(C)C)cc(c1OC/C=C/C(=O)NCCCO)Cc1cc(C(C)(C)C)cc(c1O)Cc1cc(C(C)(C)C)cc(c1OC/C=C/C(=O)NCCCO)C2 , thanks.
Reply | 38.8

Ask | inhibition at 72 h, 10 µM lookup needed for CC(Oc1c2cc(C(C)(C)C)cc1Cc1cc(C(C)(C)C)cc(c1O)Cc1cc(C(C)(C)C)cc(c1OC(C)C(=O)NCCCCCO)Cc1cc(C(C)(C)C)cc(c1O)C2)C(=O)NCCCCCO (stereo not given) , thanks.
Reply | 31.8

Ask | inhibition at 72 h, 10 µM lookup needed for CC(C)(C)c1cc2c(O)c(c1)Cc1cc(C(C)(C)C)cc(c1OC/C=C/C(=O)NCCO)Cc1cc(C(C)(C)C)cc(c1O)Cc1cc(C(C)(C)C)cc(c1OC/C=C/C(=O)NCCO)C2 , thanks.
Reply | 8.9
